# Target System: alpha-1 adrenergic receptor
# Protocol Text: alpha-1 adrenergic receptor radioligand binding assay ([125I]-HEAT, rat cerebral cortex membranes)
# Experimental Context: [125I]-HEAT 40 pM, 37° C. for 60 min, read-out: IC50 (inhibition of binding of the alpha-1 adrenergic receptor)
Measurement Kind: IC50

| Mol Smiles | Measured Value |
| --- | --- |
| N#Cc1cccc(/C=C/C(=O)N[C@H](Cc2ccco2)CN2CCC(C(=O)c3ccc(F)cc3)CC2)c1 | 131 nM |
| COc1ccc(C#N)cc1/C=C/C(=O)N[C@H](Cc1cnc[nH]1)CN1CCC(C(=O)c2ccc(F)cc2)CC1 | 121 nM |
| COc1ccc(Cl)cc1/C=C/C(=O)N[C@H](CO)CN1CCC(C(=O)c2ccc(Cl)cc2)CC1 | 215 nM |
| COc1ccc(Br)cc1/C=C/C(=O)N[C@H](Cc1cccnc1)CN1CCC(C(=O)c2ccc(F)cc2)CC1 | 58 nM |
| COc1ccc(Br)cc1/C=C/C(=O)N[C@H](CO)CN1CCC(C(=O)c2ccc(Cl)cc2)CC1 | 356 nM |
| COc1ccc(C#N)cc1/C=C/C(=O)N[C@H](Cc1ccco1)CN1CCC(C(=O)c2ccc(F)cc2)CC1 | 72 nM |
| N#Cc1cccc(/C=C/C(=O)NCCN2CCC(C(=O)c3ccc(F)cc3)CC2)c1 | 210 nM |

---

# Target System: alpha-1 adrenergic receptor
# Protocol Text: alpha-1 adrenergic receptor radioligand binding assay ([125I]-HEAT, rat cerebral cortex membranes)
Measurement Kind: Kd

| Compound | Measured Value |
| --- | --- |
| O=C1c2ccccc2CCC1CNCCc1ccc(O)c(I)c1 (stereo not shown) [[^125I]-HEAT, reference compound] | 0.0589 nM |

---

# Target System: alpha-1 adrenergic receptor
# Protocol Text: alpha-1 adrenergic receptor radioligand binding assay ([125I]-HEAT, rat cerebral cortex membranes)
# Experimental Context: [125I]-HEAT 40 pM, 37° C. for 60 min, read-out: IC50 (inhibition of binding of the alpha-1 adrenergic receptor)
Labelling: IC50 reported below 90 nM becomes true; at or above becomes false.

| Compound | Class Label |
| --- | --- |
| CCOc1ccc(Br)cc1/C=C/C(=O)N[C@H](Cc1ccccc1)CN1CCC(C(=O)c2ccc(F)cc2)CC1 [Example 4] | false |
| COc1ccc(Br)cc1/C=C/C(=O)N[C@H](CO)CN1CCC(C(=O)c2ccc(F)cc2)CC1 [Example 25] | false |
| COc1ccc(C#N)cc1/C=C/C(=O)N[C@H](CO)CN1CCC(C(=O)c2ccc(Cl)cc2)CC1 [Example 38] | false |
| COc1ccc(Br)cc1/C=C/C(=O)NCCN1CCC(C(=O)c2ccc(F)cc2)CC1 [Example 7] | true |
| COc1ccc(Br)cc1/C=C/C(=O)NCCN1CCC(C(=O)c2ccc(Cl)cc2)CC1 [Example 13] | true |
| COc1ccc(C#N)cc1/C=C/C(=O)N[C@H](Cc1ccncc1)CN1CCC(C(=O)c2ccc(F)cc2)CC1 [Example 44] | false |
| N#Cc1cccc(/C=C/C(=O)N[C@H](Cc2ccccc2)CN2CCC(C(=O)c3ccc(F)cc3)CC2)c1 [Example 2] | false |

---

# Target System: UniProt P51677
# Sequence (P51677 1-355): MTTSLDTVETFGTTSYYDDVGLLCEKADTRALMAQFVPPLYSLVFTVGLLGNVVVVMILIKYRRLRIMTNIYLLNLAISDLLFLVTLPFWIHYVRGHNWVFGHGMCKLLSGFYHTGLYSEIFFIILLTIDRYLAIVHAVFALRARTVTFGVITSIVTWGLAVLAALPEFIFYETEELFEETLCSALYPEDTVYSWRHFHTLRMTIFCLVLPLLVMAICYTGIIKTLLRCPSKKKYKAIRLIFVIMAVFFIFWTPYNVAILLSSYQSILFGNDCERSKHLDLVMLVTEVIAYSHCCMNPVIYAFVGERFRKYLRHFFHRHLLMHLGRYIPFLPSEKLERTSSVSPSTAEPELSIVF
# IC50 values compiled below

| Mol Smiles | Target System | IC50, nM |
| --- | --- | --- |
| COc1ccc(Br)cc1/C=C/C(=O)NCCN1CCC(C(=O)c2ccc(Cl)cc2)CC1 | UniProt P51677 | 26 |
| N#Cc1cccc(/C=C/C(=O)N[C@H](Cc2ccccc2)CN2CCC(C(=O)c3ccc(F)cc3)CC2)c1 | UniProt P51677 | 68 |
| CC(C)Oc1ccc(Br)cc1/C=C/C(=O)NCCN1CCC(C(=O)c2ccc(F)cc2)CC1 | UniProt P51677 | 8 |
| COc1ccc(C#N)cc1/C=C/C(=O)N[C@H](Cc1cnc[nH]1)CN1CCC(C(=O)c2ccc(F)cc2)CC1 | UniProt P51677 | 13 |
| COc1ccc(Br)cc1/C=C/C(=O)N[C@H](CO)CN1CCC(C(=O)c2ccc(Cl)cc2)CC1 | UniProt P51677 | 22 |
